Cited source: paper PMC11887451

Tested on: patient-derived VMC23 cell line (epithelioid MPM)
method: MTT cytotoxicity assay, 72 h, VMC23
Format: cell-based, human
cond: exposure time 72 h
reportedMetric: log10 of IC50 (log10 of the value in nM)
All values: base-10 log of IC50 in nM.

The examples below pair each entry with its known result.
F[P-](F)(F)(F)(F)F.c1cc[c]2c(c1)Cc1cccc[n+]1[Au-]21[S]C(=[N+]2CCCCC2)[S]1 (centres unmarked) [2H] : 3.92
COC1c2cccc[c]2[Au-]2([S]C(=[N+]3CCCCCC3)[S]2)[n+]2ccccc21.F[P-](F)(F)(F)(F)F (racemic) [4G] : 3.54
C[N+](C)=C1[S][Au-]2([S]1)[c]1ccccc1C(=O)c1cccc[n+]12.F[P-](F)(F)(F)(F)F (centres unmarked) [3A] : 2.81
CCCC[N+](CCCC)=C1[S][Au-]2([S]1)[c]1ccccc1Nc1cccc[n+]12.F[P-](F)(F)(F)(F)F (centres unmarked) [5C] : 2.81
COC1c2cccc[c]2[Au-]2([S]C(=[N+]3CCCCC3)[S]2)[n+]2ccccc21.F[P-](F)(F)(F)(F)F (racemic) [4H] : 3.45
F[P-](F)(F)(F)(F)F.c1ccc(C[N+](Cc2ccccc2)=C2[S][Au-]3([S]2)[c]2ccccc2Nc2cccc[n+]23)cc1 (centres unmarked) [5D] : 3.11
CCCC[N+](CCCC)=C1[S][Au-]2([S]1)[c]1ccccc1Cc1cccc[n+]12.F[P-](F)(F)(F)(F)F (centres unmarked) [2C] : 3.38
CC[N+](CC)=C1[S][Au-]2([S]1)[c]1ccccc1Nc1cccc[n+]12.F[P-](F)(F)(F)(F)F (centres unmarked) [5B] : 2.48
CC[N+](=C1[S][Au-]2([S]1)[c]1ccccc1Cc1cccc[n+]12)c1ccccc1.F[P-](F)(F)(F)(F)F (centres unmarked) [2E] : 3.30
COC1c2cccc[c]2[Au-]2([S]C(=[N+]3CCCC3)[S]2)[n+]2ccccc21.F[P-](F)(F)(F)(F)F (racemic) [4F] : 3.46

Give one value of log10 of IC50 per listed compound.
1. CC[N+](CC)=C1[S][Au-]2([S]1)[c]1ccccc1-c1cccc[n+]12.F[P-](F)(F)(F)(F)F (centres unmarked) [1B]
2. F[P-](F)(F)(F)(F)F.c1ccc(C[N+](Cc2ccccc2)=C2[S][Au-]3([S]2)[c]2ccccc2Cc2cccc[n+]23)cc1 (centres unmarked) [2D]
3. N.N.[Cl][Pt][Cl] [Cisplatin, cisplatin, reference compound]
4. COC1c2cccc[c]2[Au-]2([S]C(=[N+](Cc3ccccc3)Cc3ccccc3)[S]2)[n+]2ccccc21.F[P-](F)(F)(F)(F)F (racemic) [4D]

Solution:
1. 3.20
2. 3.38
3. 3.56
4. 3.62
